Assay: green autofluorescence of compounds with avidin beads – biophysical, 488/530 nm, flow cytometry, artefact control, profiling panel (AID 1775)
Conditions: compound fluorescence 488/530 nm, at 10 µM, stronger effect = higher value
About 820 (0.37%) of roughly 220,000 compounds were called active. What follows is part of a selection rich in actives, with near analogues and random picks from the rest.
PROPERTY_MEASURED: fluorescence (KMESF)

1) CC(C)(C)NC(=O)NCc1ccco1 = 6
2) CCOC(=O)c1sc(NC(=O)CSc2n[nH]c(CC)n2)nc1C = 15
3) O=C(c1ccc(F)cc1)N1CCC(n2nnc3ccccc32)CC1 = 34
4) CCc1ccccc1NC(=O)Cc1cn(C)c2ccccc12 = 10
5) O=C1CC(Cc2ccc(Cl)cc2)C(=O)N1c1cc(Cl)ccn1 (stereo unspecified) = 3
6) Fc1ccc(Cn2nnnc2C(c2cccs2)N2CCCCCC2)cc1 (stereo unspecified) = 62
7) CCC(C)(C)n1nnnc1C(c1cccs1)N1CCN(Cc2ccccc2)CC1 (stereo unspecified) = 5
8) CCOc1cnc(C(=O)NNC(=O)c2ccccc2Br)o1 = 15
9) COC(=O)CSc1ccc2nnc(CCNS(=O)(=O)c3ccc(C)cc3)n2n1 = 4
10) Fc1ccccc1C(c1nnnn1Cc1ccc2c(c1)OCO2)N1CCN(Cc2ccccc2)CC1 (stereo unspecified) = 5
11) CC(C)Cn1c(CN(Cc2ccccc2)Cc2ccccc2)nc2c1c(=O)n(C)c(=O)n2C = 8

The origin of these recorded values is PubChem BioAssay AID1775.
